Attribution: patent US20110135636A1

# reported % inhibition; entries follow
target: T1, recombinant human EGFR extracellular domain with 6xHis (human, UniProt P00533 25-645); experiment: SPR competition, competitor 1257
T1 construct: In-house produced; also called 6xHis EGFR ECD; soluble human EGFR ECD; not shown: 6xHis tag
# value in %; strip the unit string

Query: Please report the recorded % inhibition for antibody 1284 (antibody, human IgG1, kappa, V domains shown, Chimeric IgG1 kappa) VH: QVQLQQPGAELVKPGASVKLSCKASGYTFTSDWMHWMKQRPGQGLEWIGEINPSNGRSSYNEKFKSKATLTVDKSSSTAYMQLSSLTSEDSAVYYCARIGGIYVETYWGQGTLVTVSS VL: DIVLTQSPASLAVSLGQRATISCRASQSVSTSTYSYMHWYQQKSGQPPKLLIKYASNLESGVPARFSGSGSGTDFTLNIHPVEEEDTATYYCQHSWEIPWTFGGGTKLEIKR .
Reply: 0

Query: Please report the recorded % inhibition for antibody 1260 (antibody, human IgG1, kappa, V domains shown, Chimeric IgG1 kappa) VH: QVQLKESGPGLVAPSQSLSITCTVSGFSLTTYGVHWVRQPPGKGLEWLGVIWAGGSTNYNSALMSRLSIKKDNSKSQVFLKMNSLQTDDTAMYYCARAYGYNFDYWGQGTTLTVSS VL: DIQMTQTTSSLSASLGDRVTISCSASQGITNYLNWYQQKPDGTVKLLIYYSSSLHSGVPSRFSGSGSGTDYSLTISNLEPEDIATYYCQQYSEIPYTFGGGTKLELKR .
Reply: 55

Query: Please report the recorded % inhibition for antibody 1208 (antibody, human IgG1, kappa, V domains shown, Chimeric IgG1 kappa; also called clone 1208) VH: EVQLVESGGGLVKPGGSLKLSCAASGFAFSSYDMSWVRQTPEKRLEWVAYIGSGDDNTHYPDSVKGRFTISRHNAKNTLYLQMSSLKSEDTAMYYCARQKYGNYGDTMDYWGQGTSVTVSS VL: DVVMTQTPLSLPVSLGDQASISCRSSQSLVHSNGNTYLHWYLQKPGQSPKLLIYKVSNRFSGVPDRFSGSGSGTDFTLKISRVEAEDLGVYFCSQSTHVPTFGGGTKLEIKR .
Reply: 9

Query: Please report the recorded % inhibition for antibody 1030 (antibody, human IgG1, kappa, V domains shown, Chimeric IgG1 kappa) VH: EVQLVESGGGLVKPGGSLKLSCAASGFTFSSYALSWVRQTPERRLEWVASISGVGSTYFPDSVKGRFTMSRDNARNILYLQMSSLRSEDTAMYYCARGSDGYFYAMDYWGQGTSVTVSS VL: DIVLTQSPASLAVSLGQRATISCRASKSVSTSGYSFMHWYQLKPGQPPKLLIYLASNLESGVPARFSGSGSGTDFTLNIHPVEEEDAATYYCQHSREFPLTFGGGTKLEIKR .
Reply: 5

Query: Please report the recorded % inhibition for antibody 1254 (antibody, human IgG1, kappa, V domains shown, Chimeric IgG1 kappa; also called mAb 1254) VH: EVQLVESGGGLVKPGGSLKLSCAASGFAYSTYDMSWVRQTPEKRLEWVAYISSGGDAAYYPDTVKGRFTISRDNAKNTLYLQMSSLKSEDTAMYYCARSRYGNYGDAMDYWGQGTSVTVSS VL: DVVMTQTPLSLPVSLGDQASISCRSSQSLVHSNGNTYLHWYLQKPGQSPKLLLYKVSNRFSGVPDRFSGSGSGTDFTLKISRVESEDLGVYFCSQNTHVYTFGGGTKLEIKR .
Reply: 7
